Target: HLA-A*0202 (human)
Experiment: competition vs 125I probe peptide, purified HLA
Details: remark: other sources report otherwise
Reported endpoint: IC50 (nM)
Report only the number, with the unit nM understood.

Some binders with recorded IC50:
>>> assay_result("CQLAKTCPV [p53.135]")
43
>>> assay_result("RMPEAAPPV [p53.65]")
23

Kindly consider the entry below.
Query: Suppose we examine the binder GLAPPQHLIRV [p53.187] ; what IC50 value has been reported?
Result: 39
